Reported hEphB1-SEAP-: absorbance at 450 nm, percentage with respect to hEphA4-SEAP-His as 100% values are given for each entry in this list.
Biological target: T1, human EphB1 (Homo sapiens, UniProt P54762)
T1 construct: a protein of the extracellular region of each human Eph receptor fused with the SEAP protein and the His tag; made in house; host or cells: Expi293F cells (culture supernatant)
T1 sequence (P54762 18-540 limits assumed): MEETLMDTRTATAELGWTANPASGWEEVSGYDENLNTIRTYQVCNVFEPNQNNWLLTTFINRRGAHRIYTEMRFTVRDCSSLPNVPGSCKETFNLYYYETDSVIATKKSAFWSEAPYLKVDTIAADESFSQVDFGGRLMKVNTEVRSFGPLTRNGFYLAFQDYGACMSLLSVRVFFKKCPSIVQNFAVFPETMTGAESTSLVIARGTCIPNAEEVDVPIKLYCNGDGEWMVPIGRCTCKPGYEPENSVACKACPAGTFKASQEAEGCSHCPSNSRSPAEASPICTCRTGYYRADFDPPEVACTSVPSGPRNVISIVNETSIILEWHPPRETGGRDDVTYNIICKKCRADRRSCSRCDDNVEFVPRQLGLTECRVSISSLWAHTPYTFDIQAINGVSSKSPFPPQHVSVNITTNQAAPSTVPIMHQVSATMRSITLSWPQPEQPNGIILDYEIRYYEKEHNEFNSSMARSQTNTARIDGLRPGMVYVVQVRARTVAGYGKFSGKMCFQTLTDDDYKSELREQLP
Assay: Selectivity ELISA of humanized antibodies for human Eph receptor
Assay type: binding
Conditions: coated protein 1 nM
Report the figure along with its unit, number first.

As a guide, the following entries are already answered.
# molecule, measurement
data = [
    ("152 (antibody, V domains shown, synthetic humanized antibody heavy chain variable region sequence; synthetic humanized antibody light chain variable region sequence) VH: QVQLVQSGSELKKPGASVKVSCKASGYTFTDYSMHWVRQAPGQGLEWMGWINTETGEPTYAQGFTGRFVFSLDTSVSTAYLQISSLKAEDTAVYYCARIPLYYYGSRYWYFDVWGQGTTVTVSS VL: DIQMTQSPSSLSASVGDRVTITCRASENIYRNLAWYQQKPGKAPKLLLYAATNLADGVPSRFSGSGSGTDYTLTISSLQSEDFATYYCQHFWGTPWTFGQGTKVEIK", "5.9%"),
    ("154 (antibody, V domains shown, synthetic humanized antibody heavy chain variable region sequence; synthetic humanized antibody light chain variable region sequence) VH: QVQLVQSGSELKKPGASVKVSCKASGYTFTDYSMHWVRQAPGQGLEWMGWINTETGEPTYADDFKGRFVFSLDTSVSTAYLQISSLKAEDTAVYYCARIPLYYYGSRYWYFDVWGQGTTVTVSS VL: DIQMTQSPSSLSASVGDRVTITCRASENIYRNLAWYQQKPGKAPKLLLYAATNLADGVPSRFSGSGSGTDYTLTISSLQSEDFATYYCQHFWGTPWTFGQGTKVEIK", "6.3%"),
    ("132 (antibody, V domains shown, synthetic humanized antibody heavy chain variable region sequence; synthetic humanized antibody light chain variable region sequence) VH: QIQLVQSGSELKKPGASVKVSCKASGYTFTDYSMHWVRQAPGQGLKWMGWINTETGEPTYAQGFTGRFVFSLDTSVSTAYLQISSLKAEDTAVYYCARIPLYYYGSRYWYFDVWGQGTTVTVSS VL: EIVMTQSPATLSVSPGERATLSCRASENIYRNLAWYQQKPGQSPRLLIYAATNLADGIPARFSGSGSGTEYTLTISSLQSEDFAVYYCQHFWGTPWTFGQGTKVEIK", "4.8%"),
]

Kindly consider the entry below.
Which hEphB1-SEAP-: absorbance at 450 nm, percentage with respect to hEphA4-SEAP-His as 100% is reported for this molecule? 82 (antibody, V domains shown, constant regions without entry; synthetic humanized antibody light chain variable region sequence; synthetic humanized antibody heavy chain variable region sequence) VL: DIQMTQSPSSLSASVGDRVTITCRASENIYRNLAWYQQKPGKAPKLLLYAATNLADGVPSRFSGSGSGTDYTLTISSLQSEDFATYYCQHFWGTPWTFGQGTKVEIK VH: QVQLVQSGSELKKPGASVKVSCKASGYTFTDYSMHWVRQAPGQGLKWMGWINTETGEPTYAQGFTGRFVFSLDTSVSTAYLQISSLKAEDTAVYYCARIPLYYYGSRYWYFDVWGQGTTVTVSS 5.4%
